B1: CPEB3 Ribozyme (parent)
chain: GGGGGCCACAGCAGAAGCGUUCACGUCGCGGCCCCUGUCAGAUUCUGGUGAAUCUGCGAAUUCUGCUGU

- Variants of: B1
- procedureDetails: self-cleavage, relative activity (ratio to wild type); higher = more cleavage; co-transcriptional
Returns one of True or False; True when self-cleavage is >= 0.7.

mutantCode: A13C C29G
class: False
//
mutantCode: C27A C35G
class: False
//
mutantCode: C12G U64C
class: False
//
mutantCode: C32G U49G
class: False
//
mutantCode: C57U U62G
class: False
//
mutantCode: A13U G47C
class: True
//
mutantCode: C18U G50U
class: True
//
mutantCode: U36C G58C
class: True
//
mutantCode: U26G U62G
class: False
//
mutantCode: A8C C63G
class: True
//
mutantCode: G56C C63A
class: False
//
mutantCode: A10C G50U
class: True
//
mutantCode: G3U A42U
class: False
//
mutantCode: G3U C18A
class: False
//
mutantCode: G11A U55C
class: False
//
mutantCode: U38G U61A
class: False
//
mutantCode: A15U U69C
class: True
//
mutantCode: A42U U43C
class: True
//
mutantCode: A15C A52U
class: True
//
mutantCode: G14A C22U
class: False
//
mutantCode: U20A G37U
class: False
//
mutantCode: G1U C33G
class: False
//
mutantCode: C9G U69C
class: True
//
mutantCode: C18U U64A
class: False
//
mutantCode: A42G U61C
class: False
//
mutantCode: C22A C39G
class: False
//
mutantCode: C12G G30U
class: False
//
mutantCode: A10C A52C
class: True
//
mutantCode: G14U U20C
class: False
//
mutantCode: A15U U46G
class: True
//
mutantCode: G19A A42G
class: False
//
mutantCode: C18A U62A
class: False
//
mutantCode: G3A A60G
class: False
//
mutantCode: C24G U55C
class: False
//
mutantCode: U21G U64A
class: False
//
mutantCode: G14A C32U
class: True
//
mutantCode: U46C C66U
class: True
//
mutantCode: A16G C63U
class: True
//
mutantCode: C6U G58U
class: True
//
mutantCode: C35A A60U
class: False
//
mutantCode: C35U G41A
class: False
//
mutantCode: C35U U64G
class: True
//
mutantCode: C27U C34G
class: False
//
mutantCode: G41C C66U
class: True
//
mutantCode: U62C C66G
class: False
//
mutantCode: U44C U61A
class: True
//
mutantCode: G28A C66U
class: False
//
mutantCode: C9G U20C
class: False
//
mutantCode: C7A G37U
class: False
//
mutantCode: C34A C54A
class: False
//
mutantCode: C27A A60C
class: False
//
mutantCode: G31A G65C
class: False
//
mutantCode: G2U G30A
class: False
//
mutantCode: C35A G58A
class: False
//
mutantCode: C22A U53C
class: False
//
mutantCode: C7G G30A
class: True
//
mutantCode: G5U U53A
class: False
//
mutantCode: U38C G48U
class: True
//
mutantCode: A15C C24G
class: False
//
mutantCode: G3A C6U
class: False
//
mutantCode: G5U A52C
class: False
//
mutantCode: U26C G65U
class: False
//
mutantCode: G30U C34A
class: False
//
mutantCode: G2U G17C
class: False
//
mutantCode: G28U A60U
class: False
//
mutantCode: U36G C57U
class: False
//
mutantCode: U38A G41U
class: True
//
mutantCode: U21G G31C
class: False
//
mutantCode: C18A C57U
class: False
//
mutantCode: G28U U69C
class: False
//
mutantCode: C9U U61C
class: True
//
mutantCode: C24U C63A
class: False
//
mutantCode: G2U C57U
class: False
//
mutantCode: A42C C66A
class: False
//
mutantCode: G1A A10U
class: False
//
mutantCode: C6G U64C
class: False
//
mutantCode: U21A C22U
class: False
//
mutantCode: G14C G19C
class: False
//
mutantCode: G11C U21A
class: True
//
mutantCode: G50A C57U
class: False
//
mutantCode: C6U G48U
class: True
//
mutantCode: C12A G25A
class: False
//
mutantCode: C7A C32A
class: False
//
mutantCode: C35A
class: False
//
mutantCode: C9G A23C
class: True
//
mutantCode: G5U U43C
class: False
//
mutantCode: G41A U44A
class: False
